B1: ATGL (PNPLA2, patatin-like phospholipase domain-containing protein 2), human, full length / perilipin-1, mouse (mPlin1) (parent)
chain 1: MFPREKTWNISFAGCGFLGVYYVGVASCLREHAPFLVANATHIYGASAGALTATALVTGVCLGEAGAKFIEVSKEARKRFLGPLHPSFNLVKIIRSFLLKVLPADSHEHASGRLGISLTRVSDGENVIISHFNSKDELIQANVCSGFIPVYCGLIPPSLQGVRYVDGGISDNLPLYELKNTITVSPFSGESDICPQDSSTNIHELRVTNTSIQFNLRNLYRLSKALFPPEPLVLREMCKQGYRDGLRFLQRNGLLNRPNPLLALPPARPHGPEDKDQAVESAQAEDYSQLPGEDHILEHLPARLNEALLEACVEPTDLLTTLSNMLPVRLATAMMVPYTLPLESALSFTIRLLEWLPDVPEDIRWMKEQTGSICQYLVMRAKRKLGRHLPSRLPEQVELRRVQSLPSVPLSCAAYREALPGWMRNNLSLGDALAKWEECQRQLLLGLFCTNVAFPPEALRMRAPADPAPAPADPASPQHQLAGPAPLLSTPAPEARPVIGALGL
chain 2: MSMNKGPTLLDGDLPEQENVLQRVLQLPVVSGTCECFQKTYNSTKEAHPLVASVCNAYEKGVQGASNLAAWSMEPVVRRLSTQFTAANELACRGLDHLEEKIPALQYPPEKIASELKGTISTRLRSARNSISVPIASTSDKVLGATLAGCELALGMAKETAEYAANTRVGRLASGGADLALGSIEKVVEFLLPPDKESAPSSGRQRTQKAPKAKPSLVRRVSTLANTLSRHTMQTTAWALKQGHSLAMWIPGVAPLSSLAQWGASAAMQVVSRRQSEVRVPWLHNLAASQDESHDDQTDTEGEETDDEEEEEESEAEENVLREVTALPNPRGLLGGVVHTVQNTLRNTISAVTWAPAAVLGTVGRILHLTPAQAVSSTKGRAMSLSDALKGVTDNVVDTVVHYVPLPRLSLMEPESEFRDIDNPSAEAERKGSGARPASPESTPRPGQPRGSLRSVRGLSAPSCPGLDDKTEASARPGFLAMPREKPARRVSDSFFRPSVMEPILGRAQYSQLRKKS

Variants of: B1
Test description: LUMIER: Protein A-ATGL variant and firefly luciferase-partner co-expressed in HEK293T, lysates immunoprecipitated on IgG-coated plates, co-precipitated partner measured as luciferase luminescence
Condition parameters: with perilipin-1, mouse (mPlin1), transient co-transfection, IgG-coated LUMITRAC plates, 2 h at 4 °C, three PBS washes, Bright-Glo luciferase reagent, triplicates per assay, two …, parent: -0.37, not graded, scale: log2 fold change of co-immunoprecipitated luminescence relative to wild-type ATGL within each experiment
Measured attribute: screen value
Answer with a bare number; do not write a unit.

Input: Param item = chain 1 R113K ; retrieve measured screen value.
Output: 0.272

Input: Param item = chain 1 R351L ; retrieve measured screen value.
Output: -0.298

Input: Param item = chain 1 G153K ; retrieve measured screen value.
Output: -0.772

Input: Param item = chain 1 R329E ; retrieve measured screen value.
Output: -0.537

Input: Param item = chain 1 E314A ; retrieve measured screen value.
Output: 0.211

Input: Param item = chain 1 G66L ; retrieve measured screen value.
Output: -0.433

Input: Param item = chain 1 G16K ; retrieve measured screen value.
Output: 0.718

Input: Param item = chain 1 R163K ; retrieve measured screen value.
Output: -0.582

Input: Param item = chain 1 E368A ; retrieve measured screen value.
Output: -0.602

Input: Param item = chain 1 N180L ; retrieve measured screen value.
Output: -0.626

Input: Param item = chain 1 S87A ; retrieve measured screen value.
Output: -0.536

Input: Param item = chain 1 G59L ; retrieve measured screen value.
Output: -0.613

Input: Param item = chain 1 A104E ; retrieve measured screen value.
Output: -0.823

Input: Param item = chain 1 S158A ; retrieve measured screen value.
Output: 0.188

Input: Param item = chain 1 T41A ; retrieve measured screen value.
Output: -0.45

Input: Param item = chain 1 Y415A ; retrieve measured screen value.
Output: -0.00379

Input: Param item = chain 1 H109E ; retrieve measured screen value.
Output: -0.386

Input: Param item = chain 1 Q140A ; retrieve measured screen value.
Output: -0.191

Input: Param item = chain 1 P86K ; retrieve measured screen value.
Output: -0.498

Input: Param item = chain 1 P258L ; retrieve measured screen value.
Output: -1.35

Input: Param item = chain 1 R113L ; retrieve measured screen value.
Output: 0.163

Input: Param item = chain 1 L62A ; retrieve measured screen value.
Output: -0.248

Values were extracted from paper PMC10958042.
